system: HL-60; experiment: NCI tumour cell line growth inhibition, 48 h
The source made the active and inactive calls. Cut-off read from the data, not from the text of the source: active = GI50 up to about 1.1 µM and inactive = higher.
Possible outcomes: yes (1) for active, no (0) for inactive

- C/C(=C1\C(=O)C(c2ccccc2)N(c2ccccc2)C1=O)c1ccc(Cl)cc1 (stereo unspecified): no (0)
- CC(=O)OC12/C(=N/O)CCCCCC1c1ccccc12 (stereo unspecified): no (0)
- O=C(O)CSc1ccc2nc3ccccc3c(O)c2c1: no (0)
- Cc1nc2c(nc1C)C(=O)C1=C(C2=O)C2C=CC1CC2: no (0)
- O=C1Nc2ccccc2/C1=N/Nc1ccc([N+](=O)[O-])cc1: no (0)
- CC(C)(C)C=C=C(C(C)(C)C)P(=O)(O)O: no (0)
- COc1ccccc1/N=N/c1c(-c2ccccc2)nn(C(=O)CC(=O)Nc2ccccc2Cl)c1-c1ccccc1: no (0)
- CC1C2=CC=C(O2)C(C)(C)C2=CC=C(O2)C(C)(C)C2=CC=C(O2)C(C)(C)C2=CC=C1O2: no (0)
- CC[C@H](C)[C@@H]([C@@H](CC(=O)N1CCC[C@H]1[C@H](OC)[C@@H](C)C(=O)NCCc1ccccc1)OC)N(C)C(=O)C(NC(=O)[C@H](C(C)C)N(C)C)C(C)C (stereo partly specified): yes (1)
- O=c1[nH]nc(Cc2ccccc2)n1/N=C/c1ccc([N+](=O)[O-])cc1: no (0)
- CC(C)(C)OC(=O)N1C(C2=COc3ccccc3O2)=COc2cccnc21: no (0)
- COC(=O)c1c(C)nc(C)c(NO)c1-c1ccccc1C(F)(F)F: no (0)
- CCN(CC)Cc1sc2nc3ccccc3n2c1-c1ccc(OC)cc1: no (0)
- CCCCCCCC(=O)OC[C@@H](C[As](=O)(O)O)OC(=O)CCCCCCC: no (0)
- Cc1cn2c(=O)c3ccccc3nc2s1: no (0)
- CCC1CN2CCc3c([nH]c4ccccc34)C2C[C@@H]1CC(=O)N(C)C (stereo partly specified): no (0)
- CC1(C)OCC(C2OC3OC(C)(C)OC3C2c2ccccc2)O1 (stereo unspecified): no (0)
- N#CN1CCC2CC(=O)CCC2C1 (stereo unspecified): no (0)
- COc1ccc(C(=O)Cc2c(C(=O)c3ccccc3)c3ccccc3n2C(=O)c2ccccc2)cc1: no (0)
- O=C(Sc1c(-c2ccccc2)c(=O)n(-c2ccccc2)c(=S)n1-c1ccccc1)c1ccco1: no (0)
- Cc1ccc(/N=N/c2c(C)nn(-c3ccccc3)c2C)c(Br)c1: no (0)

* * *

system: SK-MEL-2; experiment: NCI tumour cell line growth inhibition, 48 h
Active and inactive are the calls of the source. Cut-off read from the data, not from the text of the source: active = GI50 up to about 1.1 µM and inactive = higher. Bridge positions count the residues as written; N and C are the ends. Square brackets hold non-standard residues; d marks the D form. Peptide text beside a SMILES is read from it. I, II: the chains in the order shown. * marks the point of attachment. Quinoxaline2carbonyl = O=C(c1cnc2ccccc2n1)*; NMeV = CN[CH](C(=O)O)C(C)C; NMeC = CN[CH](CS)C(=O)O
Possible outcomes: yes = active, no = inactive

• O=[N+]([O-])/C=C/c1cn(CCCCCn2cc(/C=C/[N+](=O)[O-])c3ccccc32)c2ccccc12 = no
• CCCCCCCC/C=C/CCCCCCCC(=O)N(O)C1CC(n2cc(C)c(=O)[nH]c2=O)OC1CO (configuration not stated) = no
• Oc1c(Br)cc(CN(Cc2cc(Br)c(O)c(Br)c2)C2CCCCC2)cc1Br = no
• O=c1[nH]nc(Cc2ccccc2)n1/N=C/c1ccc([N+](=O)[O-])cc1 = no
• COc1ccc(/C=C2\N=C(N3CCCCC3)NC2=O)cc1 = no
• CCOC(=O)C(CC(C)C)NC(=O)C(Cc1ccc(N(CCCl)CCCl)cc1)NC(C)=O (configuration not stated) = no
• O=C1C(S(=O)(=O)c2ccccc2)=C(CS(=O)(=O)c2ccccc2)[C@@H](OCc2ccccc2)[C@@H]1OCc1ccccc1 = no
• NC(=S)N/N=C(\CCC(=O)Nc1ccccc1[N+](=O)[O-])CC(=O)c1ccco1 = no
• CN/N=C(/Cc1occc(=O)c1O)C(=O)Nc1ccccc1C = no
• CC(=O)C1C(=O)C(=O)N(c2ccc(Cl)c(Cl)c2)C1=O (configuration not stated) = no
• COc1ccc(Nc2[nH]c(C(C)=O)c(N)c2C(=S)Nc2ccccc2)cc1 = no
• O=C(O)/C=C/C(=O)Nc1nc[nH]n1 = no
• Cc1nc2c(nc1C)C(=O)C1=C(C2=O)C2C=CC1CC2 = no
• CC(C)(CCl)NC(=O)c1cccc(C(=O)NC(C)(C)CCl)n1 = no
• CC1NC(=O)C(NC(=O)c2cnc3ccccc3n2)COC(=O)C(C(C)C)N(C)C(=O)C2CSSCC(C(=O)N(C)C(C(C)C)C(=O)OCC(NC(=O)c3cnc4ccccc4n3)C(=O)NC(C)C(=O)N2C)N(C)C1=O (configuration not stated) (I: Quinoxaline2carbonyl-SA[NMeC][NMeV] / II: Quinoxaline2carbonyl-SA[NMeC][NMeV]; ester I:1-II:C, I:C-II:1; disulfide I:3-II:3; configuration not given here) = yes
• O=C1NC(c2ccccc2)C1N(Cc1ccccc1)Cc1ccccc1 (configuration not stated) = no
• CC1=NOC(=O)/C1=C/c1ccc2c(c1)OCO2 = no
• C/C=C(\C)C(=O)O[C@@H]1CC(C)(C)CC2C3=CCC4[C@]56CC[C@](O)(OC5)C(C)(C)C6CC[C@@]4(C)C3(C)CC[C@]21C(=O)O (some centres not stated) = no
• COC(=O)C1=C(C)N2CCCOC2(C)C(C(=O)OC)C1c1cccc(Cl)c1 (configuration not stated) = no
• CCOC(=O)c1cn(CC)c2cc3c(cc2c1=O)SCS3 = no
• CC(C)(C)C=C=C(C(C)(C)C)P(=O)(O)O = no
• C#CCN(N=O)C(=O)NC(CCCCNC(=O)OCc1ccccc1)C(=O)OCc1ccccc1 (configuration not stated) = no
• CO/C=C(/C(=O)OC)[C@@H]1C[C@@H]1c1ccc2ccccc2c1 = no
• O=C(c1ccc(Cl)cc1Cl)N(C(=O)N1CCC(c2ccccc2)CC1)c1ccccc1 = no
• CC1=C(C(=O)OC(C)C)C(c2ccccc2[N+](=O)[O-])C(C(=O)OC(CO[N+](=O)[O-])CO[N+](=O)[O-])=C(C)N1 (configuration not stated) = no
• CC(C)C(Br)C(=O)NCC(=O)O (configuration not stated) = no
• CC(=O)On1c(-c2ccccc2-c2nc3ccccc3n2OC(C)=O)nc2ccccc21 = no
• C[N+]1(Cc2ccc(Cl)c(Cl)c2)CCCC1C1CCCN(Cc2ccc(Cl)c(Cl)c2)C1 (configuration not stated) = no
• COc1ccc2c(NCCCCCCNc3c4ccccc4nc4cc(OC)ccc34)c3ccccc3nc2c1 = yes
• CN(NC(=O)c1ccc(Cl)cc1)C1=NCCCCN1 = no
• O=C(O)CNS(=O)(=O)c1ccc(NCc2ccccc2)cc1 = no
• CC(C)C1=CC23CCC4C(C)(C(=O)O)CCCC4(C)C2CC1C1C(=O)N(CCCCCCN2C(=O)C4C5CC6C7(C)CCCC(C)(C(=O)O)C7CCC6(C=C5C(C)C)C4C2=O)C(=O)C13 (configuration not stated) = no
• COc1ccc(CC2Cc3ccccc3CCN2)cc1OC (configuration not stated) = no
• Cc1cc(=O)oc2cc(OC(=O)Nc3ccccc3)ccc12 = no
• CC(C)c1cccc(C(C)C)c1NC(=O)C(=O)C1CCC2=C(Sc3ccccc3N2)C1=O (configuration not stated) = no
• CC(=O)c1cc2ccccc2[n+]([O-])c1N = no
• CC(=O)OC12/C(=N/O)CCCCCC1c1ccccc12 (configuration not stated) = no
